Molecular target: BG505 SOSIP.664-N137A trimer, produced in 293S cells (HIV-1 (clade A strain BG505))
Test: ITC
Documented fold enhanced affinity against its binding to the wild-type trimer across a set of binders
Output spec: scalar in fold, unitless text.

Recorded fold enhanced affinity against its binding to the wild-type trimer, per entry:
3H+3L Fab (inferred early precursor of the PGT121 family) (Fab, V domains shown) VH: QVQLQESGPGLVKPSETLSLTCTVSGGSISNYYWSWIRQSPGKGLEWIGYISDSESTNYNPSLKSRVIISVDTSKNQLSLKLNSVTAADSAIYYCARAQQGKRIYGMVSFGEFFYYYYMDVWGKGTTVTVSS VL: SYVLTQPSQLSVAPGETARISCGGRSLGSRAVQWYQQKPGQAPVLVIYNNQDRPSGIPERFSGSPDSNFGTTATLTISRVEAGDEADYYCHMWDSRSAINWVFGGGTKLTVL	15
32H+3L Fab (inferred intermediate of the PGT124 branch) (Fab, V domains shown) VH: QVQLQESGPGLVKPSETLSVTCIVSGGSISNYYWTWIRQSPGKGLEWIGYISDRETTTYNPSLKSRVVISRDTSKNQLSLKLNSVTAADTAIYYCATARRGQRIYGVVSFGEFFYYYYMDVWGKGTAVTVSS VL: SYVLTQPSQLSVAPGETARISCGGRSLGSRAVQWYQQKPGQAPVLVIYNNQDRPSGIPERFSGSPDSNFGTTATLTISRVEAGDEADYYCHMWDSRSAINWVFGGGTKLTVL	16

[Q] Need fold enhanced affinity against its binding to the wild-type trimer, item 9H+3L Fab (inferred intermediate of the PGT122 branch) (Fab, V domains shown) VH: QVQLQESGPGLVKPSETLSLTCSVSGASISDHYWSWIRQSPGKGLEWIGYVYDSGDTNYNPSLKSRVNLSLDTSKNQVSLSLTAVTAADSAIYYCARTQHGRRIYGIVAFREWFTYFYMDVWGQGTPVTVSS VL: SYVLTQPSQLSVAPGETARISCGGRSLGSRAVQWYQQKPGQAPVLVIYNNQDRPSGIPERFSGSPDSNFGTTATLTISRVEAGDEADYYCHMWDSRSAINWVFGGGTKLTVL
[A] 11
